System: KB-3-1
Test: Cytotoxic Profiling of Annotated Libraries Using Quantitative High-Throughput Screening (AID 1296008); further: nearly all actives have a fitted effect of over 60% in size; further: potency means the concentration at half of the fitted maximal effect
Settings: Five cell lines viability, CellTiter-Glo ATP luminescence, 48-72 h
Inconclusive results are not listed. Active and inactive are the calls of the source. The call rests on the fitted dose curve; in most records, active means well fitted inhibition curve with a large enough effect; inconclusive means small, poorly fitted or top-dose-only effect; inactive means flat fitted curve, though single readings scatter.
MEASURED METRIC: Potency

Sample records with Potency:
Output Potency of NC(=O)c1cnccn1
inactive

Consider the compound C1COC(NC(C2CC2)C2CC2)=N1 and give its recorded Potency.
inactive

Give the reported value of Potency for this record: COc1cccc2cc(-c3nc(C4CCC(C(=O)O)CC4)n4ncnc(N)c34)[nH]c12 (centres undefined)
2350 nM (active)

State, in one line, measured Potency of COc1cc2nccc(Oc3ccc(NC(=O)NC4CC4)c(Cl)c3)c2cc1C(N)=O
inactive

Write down Potency measured for item Cc1cc2c(C(C)C)c(O)c(O)c(C=O)c2c(O)c1-c1c(C)cc2c(C(C)C)c(O)c(O)c(C=O)c2c1O
9350 nM (active)

// Input: COc1ccc(-c2oc3cc(OC)ccc3c2C(=O)c2ccc(C#N)cc2)cc1 . Output its Potency only.
inactive

Next:
Find the measured Potency of CC(C=CC1=C(C)CCCC1(C)C)=CC=CC(C)=CC(=O)O and report it.
inactive

Hello, please tell me recorded Potency for this one: COc1ccc(-c2ccc3c(N4CCOCC4)nc(N4C[C@@H](C)O[C@@H](C)C4)nc3n2)cc1CO
1660 nM (active)

Query Potency for C[C@H](NC(=O)Cc1cc(F)cc(F)c1)C(=O)N[C@@H]1C(=O)N(C)c2ccccc2-c2ccccc21
inactive

Just for reference, PubChem BioAssay (NCATS) is where these values come from.
